tested on: HSkMC (human skeletal muscle cells); experiment: cytotoxicity call (relative viability < 0.9); details: 10 µM
The campaign covered roughly 39,000 compounds. About 1,500 (3.8%) were called active. Shown is part of a subset that was picked to be rich in actives.
A correct response names exactly one class from YES for active, NO for inactive

Please let me know the test result on file for "Cc1ccc(F)c(S(=O)(=O)N2[C@@H]3CC[C@@H](C3)[C@H]2c2nc3cccc(OCc4ccc(F)cc4)c3[nH]2)c1" .
NO

Please let me know the test result on file for "CC(C)NC(=O)N(C)C[C@@H]1Oc2ccc(NC(=O)C3CCCCC3)cc2C(=O)N([C@@H](C)CO)C[C@H]1C" .
NO

Please let me know the test result on file for "C[C@H](CO)N1C[C@H](C)[C@H](CN(C)Cc2ccc(C(=O)Nc3ccccc3N)cc2)Oc2ccc(NC(=O)Cc3cn(C)c4ccccc34)cc2CC1=O" .
YES

Please let me know the test result on file for "CO[C@@H]1CN(C)C(=O)c2cc(NC(=O)C3CC3)ccc2OC[C@H](C)N(C(=O)C2CCOCC2)C[C@H]1C" .
NO

Ref: the antibiotic and cytotoxicity screens of Wong et al. (2023)
